Test: qHTS assay to identify small molecule antagonists of the thyroid receptor (TR) signaling pathway - cell viability counter screen (AID 743064); further: nearly all actives have a fitted effect of over 50% in size
Settings: GH3.TRE-Luc viability, CellTiter-Fluor, 24 h; series mostly up to 70.3 µM
Results filed as inconclusive are left out. Activity calls are given as the source filed them. The call rests on the fitted dose curve; in most records, active means well fitted cell-killing curve with a large enough effect in the repeat runs; inconclusive means weak or mixed curves, or effect the other way; inactive means no such curve, though single readings can be large or run the other way.
Select the matching outcome among True = active, False = inactive

# outcome recorded in this test, key = C#CC(C)(C)O False

Look up the recorded call for Cc1ccc(S(=O)(=O)N[C@@H](CCCCN)C(=O)CCl)cc1 in this test. True

Test call, this molecule: Oc1ccc(Cc2ccc(O)cc2)cc1 False

For ClC(Cl)(Cl)Cl , what call appears in the results of this test? False

Could you kindly confirm the outcome this assay logged for CC(O)CCl (stereo not drawn) ? False

Test call for this molecule, please: CC(C)C(C)(N)C#N (stereo not drawn) False

Called result for O=C(NC(=O)c1c(F)cccc1F)Nc1cc(Cl)c(F)c(Cl)c1F False

For this molecule, state the assay outcome: CS(=O)(=O)Cl False
